// provenance: ChEMBL document CHEMBL1201862

# Tested on: ACHN
# experimental.protocol: NCI tumour cell line growth inhibition, 48 h
Activity calls are given as the source filed them. Rule as the data show it: active = GI50 up to about 1.1 µM and inactive = higher.
Please reply with one of these outcomes: t = active, f = inactive

Sample answers from the record:
{"compound": "CCOC(=O)NC(Nc1c(F)c(F)c(F)c(F)c1F)(C(F)(F)F)C(F)(F)F", "category": "f"}
{"compound": "C=Cc1cc(OC)c2c(c1)c(=O)oc1c2cc(OC)c2c(O)ccc(C3OC(C)C(O)C(C)(O)C3O)c21 (stereo unspecified)", "category": "t"}
{"compound": "CCCCCCCCCCCCCCCCNCCCN(C)CCCN", "category": "f"}

[ask] # outcome recorded in this test, key = COC(=O)/C(=C\c1ccc(N(CCC#N)CCC#N)cc1)NC(=O)c1cc([N+](=O)[O-])ccc1Cl
[reply] f

[ask] Would you kindly repeat that for COc1c(C)c(OC)c(C(=O)CC(C)C)c(OC)c1C ?
[reply] f

[ask] What about N#CCN(Cc1ccccc1)[C@@H]1CCC[C@]1(O)C#Cc1ccc2c(c1)OCO2 ?
[reply] f

[ask] What about C/C(=N\NS(=O)(=O)c1ccc(C)cc1)C(CN1CCOCC1)C(c1ccccc1)c1c(O)c2ccccc2oc1=O (stereo unspecified) ?
[reply] f

[ask] Please give the result for COc1ccc2c(C=O)c3n(c(=O)c2c1OC)CCc1cc2c(cc1-3)OCO2 too.
[reply] f

[ask] Proceed to CCCCCCCCCCCCCCCCOCC(CCl)OP(=O)(O)OP(=O)(O)OCC1OC(n2ccc(N)nc2=O)C(O)C1O (stereo unspecified)
[reply] f

[ask] What about C/C(=C/C(=O)N(C)c1ccccc1Cl)O[Si](C(C)C)(C(C)C)C(C)C ?
[reply] f

[ask] Then what about the compound COc1cc(C2c3[nH]c4ccc(F)cc4c3C[C@H]3COC(=O)N23)cc(OC)c1O (stereo partly specified) ?
[reply] f
